Provenance of the data: paper PMC3766450

target: vertebrate calmodulin (CaM) (UniProt P0DP23); test: ITC
measured metric: stoichiometry N (peptide per CaM)

[
  {
    "binder": "LFPRLKSASERLSILKGSRP [AQP0^CBD peptide V230A]",
    "measured metric": "stoichiometry N",
    "output unit": "peptide per CaM",
    "recorded number": 1
  },
  {
    "binder": "LFPRAKSVSERLSILKGSRP [AQP0^CBD peptide L227A]",
    "measured metric": "stoichiometry N",
    "output unit": "peptide per CaM",
    "recorded number": 1
  }
]
